Listed compounds paired with reported Kb
- system-name: UniProt:Q60614
- Sequence (whole entry): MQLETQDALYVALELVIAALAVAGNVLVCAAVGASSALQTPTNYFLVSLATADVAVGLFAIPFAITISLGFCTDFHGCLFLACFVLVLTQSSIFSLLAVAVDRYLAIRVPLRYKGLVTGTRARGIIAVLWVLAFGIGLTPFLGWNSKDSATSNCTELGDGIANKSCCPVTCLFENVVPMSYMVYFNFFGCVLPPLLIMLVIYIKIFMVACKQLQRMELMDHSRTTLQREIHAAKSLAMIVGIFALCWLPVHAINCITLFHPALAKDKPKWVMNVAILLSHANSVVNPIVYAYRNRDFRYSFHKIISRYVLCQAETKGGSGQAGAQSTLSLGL
- experimental-protocol: Inhibition against A2B-Adenosine Receptor in mouse NIH 3T3 fibroblast cell membranes (functional antagonist activity)
- Type: cell-based
measure-name: Kb (µM)

1. Cn1c(=O)c2c(ncn2C)n(C)c1=O 25
2. CC[C@H]1CN2C(=O)N(C)c3nc(/C=C/c4ccccc4)n(C)c3C2=N1 3.7
3. CC[C@H]1CN2C(=O)N(C)c3[nH]c(-c4ccccc4)nc3C2=N1 7.6
4. Cn1c(=O)[nH]c2nc(-c3ccccc3)n(C)c2c1=O 5.2
5. CC[C@@H]1CN2C(=O)N(C)c3nc(-c4ccccc4)[nH]c3C2=N1 2.1

---

- experimental-protocol: Water solubility of the compound
- Type: ADME
- experimental-parameters: read-out: S
Listed compounds paired with reported solubility
measure-name: solubility

1. Cn1c(=O)c2[nH]cnc2n(C)c1=O.O 44400 µM
2. Cn1c(=O)c2c(nc(-c3ccccc3)n2C)n(C)c1=O 487 µM
3. Cn1c(=O)c2nc(/C=C/c3ccccc3)[nH]c2n(C)c1=O 0.22 µM
4. CN1C(=O)N2CCN=C2c2c1nc(-c1ccccc1)n2C 1450 µM
5. Cn1c(=O)c2c(nc(/C=C/c3ccccc3)n2C)n(C)c1=O 2.8 µM

---

Measured Ki on Adenosine receptor A1 (Rattus norvegicus, UniProt P25099) follows.
measure-name: Ki (µM)

compound	value
Cn1c(-c2ccccc2)nc2c1C1=NCCN1C(=O)N2	1.83
CC[C@@H]1CN2C(=O)N(C)c3nc(-c4ccccc4)[nH]c3C2=N1	0.44
CN1C(=O)N2CCCN=C2c2c1ncn2C	43.2
CN1C(=O)N2CCCCC/N=C\2c2c1ncn2C	60.3
CC1CN=C2c3c(ncn3C)N(C)C(=O)N21 (stereo not drawn)	59
CCC1CN2C(=O)N(C)c3nc(-c4ccccc4)n(C)c3C2=N1 (stereo not drawn)	6.1
C[C@H]1CN=C2c3c(ncn3C)N(C)C(=O)N21	70
CC[C@@H]1CN2C(=O)N(C)c3nc(/C=C/c4ccccc4)n(C)c3C2=N1	21.7

---

- system-name: Adenosine receptor A3 (Homo sapiens)
- Sequence (P0DMS8 whole entry): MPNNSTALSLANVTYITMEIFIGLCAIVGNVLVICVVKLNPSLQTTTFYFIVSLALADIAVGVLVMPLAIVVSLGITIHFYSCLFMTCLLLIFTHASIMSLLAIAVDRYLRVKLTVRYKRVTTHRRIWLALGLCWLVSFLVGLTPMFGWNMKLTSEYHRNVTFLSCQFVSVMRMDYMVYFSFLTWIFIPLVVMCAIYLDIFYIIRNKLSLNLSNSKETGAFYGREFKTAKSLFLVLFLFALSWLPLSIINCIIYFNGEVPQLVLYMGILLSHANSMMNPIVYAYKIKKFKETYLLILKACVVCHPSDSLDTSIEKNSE
- experimental-protocol: Binding affinity against human recombinant Adenosine A3 receptor stably expressed in HEK293 cells by displacing [125I]AB-MECA radioligand
measure-name: Ki (nM)

1) CC[C@@H]1CN2C(=O)N(C)c3nc(/C=C/c4ccccc4)n(C)c3C2=N1 1700
2) Cn1c(-c2ccccc2)nc2c1C1=NCCN1C(=O)N2 47
3) CC[C@H]1CN2C(=O)N(C)c3nc(/C=C/c4ccccc4)n(C)c3C2=N1 30600
4) CN1C(=O)N2CCN=C2c2c1nc(-c1ccccc1)n2C 3330
5) CC[C@@H]1CN2C(=O)N(C)c3[nH]c(/C=C/c4ccccc4)nc3C2=N1 640

---

- experimental-protocol: Water solubility was determined.
- Assay type: ADME
measure-name: solubility

1. CN1C(=O)N2CCN=C2c2c1ncn2C 1210 mM

---

- system-name: UniProt:P30543
- experimental-protocol: Inhibition against A2A-Adenosine Receptor of rat PC12 cell membranes (functional antagonist activity)
- Format: cell-based
- experimental-parameters: PC-12
Listed compounds paired with reported Kb
measure-name: Kb (µM)

1) CC[C@@H]1CN2C(=O)N(C)c3nc(-c4ccccc4)[nH]c3C2=N1 2.5
2) CC[C@H]1CN2C(=O)N(C)c3[nH]c(-c4ccccc4)nc3C2=N1 4.3
3) Cn1c(=O)[nH]c2nc(-c3ccccc3)n(C)c2c1=O 5.7
4) CC[C@H]1CN2C(=O)N(C)c3nc(/C=C/c4ccccc4)n(C)c3C2=N1 1

---

- system-name: UniProt P25099
- Sequence (whole entry): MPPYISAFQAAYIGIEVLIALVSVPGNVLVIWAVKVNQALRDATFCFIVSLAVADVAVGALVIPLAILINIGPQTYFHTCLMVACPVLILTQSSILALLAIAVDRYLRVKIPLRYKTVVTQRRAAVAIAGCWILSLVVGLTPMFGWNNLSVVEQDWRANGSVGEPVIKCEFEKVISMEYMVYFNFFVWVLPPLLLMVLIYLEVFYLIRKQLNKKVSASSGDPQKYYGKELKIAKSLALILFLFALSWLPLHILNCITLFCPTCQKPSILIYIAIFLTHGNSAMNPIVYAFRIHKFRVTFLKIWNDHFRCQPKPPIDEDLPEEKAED
- experimental-protocol: Inhibition against Adenosine A1 receptor of rat fat cell membranes (functional antagonist activity)
measure-name: Kb (nM)

1. CC[C@@H]1CN2C(=O)N(C)c3nc(-c4ccccc4)[nH]c3C2=N1 430
2. CC[C@H]1CN2C(=O)N(C)c3nc(/C=C/c4ccccc4)n(C)c3C2=N1 33000
3. Cn1c(=O)[nH]c2nc(-c3ccccc3)n(C)c2c1=O 320
4. CC[C@H]1CN2C(=O)N(C)c3[nH]c(-c4ccccc4)nc3C2=N1 63

---

- system-name: Adenosine receptor A2a (Rattus norvegicus)
- Sequence (P30543 whole entry): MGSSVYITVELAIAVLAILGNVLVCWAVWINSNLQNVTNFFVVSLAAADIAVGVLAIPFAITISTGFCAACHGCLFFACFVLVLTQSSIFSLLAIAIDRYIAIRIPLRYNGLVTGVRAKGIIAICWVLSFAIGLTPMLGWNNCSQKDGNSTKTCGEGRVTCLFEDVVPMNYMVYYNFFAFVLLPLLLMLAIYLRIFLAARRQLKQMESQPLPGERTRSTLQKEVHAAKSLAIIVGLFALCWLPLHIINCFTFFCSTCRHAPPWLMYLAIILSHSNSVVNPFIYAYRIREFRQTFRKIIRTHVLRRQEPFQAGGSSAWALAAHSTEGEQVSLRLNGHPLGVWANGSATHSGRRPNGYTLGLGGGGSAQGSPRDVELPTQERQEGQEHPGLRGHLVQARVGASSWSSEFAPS
pKi: −log10 of the molar value.
Listed compounds paired with reported pKi
measure-name: pKi

1. CN1C(=O)N2CCCCC/N=C\2c2c1ncn2C 4.29
2. Cn1cnc2c1C1=NCCN1C(=O)N2 4.39
3. CN1C(=O)N2CCCCN=C2c2c1ncn2C 4.73
4. CC[C@@H]1CN2C(=O)N(C)c3nc(-c4ccccc4)n(C)c3C2=N1 4.44
5. CC[C@@H]1CN2C(=O)N(C)c3ncn(C)c3C2=N1 4.55
6. C[C@@H]1CN=C2c3c(ncn3C)N(C)C(=O)N21 4.30
7. CC[C@H]1CN2C(=O)N(C)c3nc(/C=C/c4ccccc4)n(C)c3C2=N1 6.37
8. CC[C@H]1CN2C(=O)N(C)c3ncn(C)c3C2=N1 4.96
9. CC[C@@H]1CN2C(=O)N(C)c3nc(-c4ccccc4)[nH]c3C2=N1 5.68
10. CC[C@H]1CN2C(=O)N(C)c3[nH]c(-c4ccccc4)nc3C2=N1 5.48
